Conditions: in ethyl formate, 293.35 K
Measure: solubility (mole fraction)
Form rule: numeric answer, no unit written next to it.

Record Cc1ccccc1S(N)(=O)=O . Reported solubility (mole fraction): 0.0207

---

Settings: in isopentanol, 279.15 K
Measure: solubility (mole fraction)
No unit in the answer, please; the number alone is enough.

Field solubility (mole fraction) (entry Cc1ccccc1S(N)(=O)=O ) reads 0.00333

---

Conditions: in methanol, 323.15 K
Measure: solubility (mole fraction)

Per the record, Cc1ccccc1S(N)(=O)=O has solubility (mole fraction) of 0.0658

---

Details: in cyclopentanone, 308.95 K
Measure: solubility (mole fraction)
// return just the number, without any unit appended

Kindly note the recorded solubility (mole fraction) for Cc1ccccc1S(N)(=O)=O , which is 0.152

---

Details: in dichloromethane, 308.95 K
Measure: solubility (mole fraction)
Note: the reply should be a number with no unit written.

Sure, the documented solubility (mole fraction) for Cc1ccccc1S(N)(=O)=O is 0.00697

---

Details: in isopentanol, 289.15 K
Measure: solubility (mole fraction)
Would you mind answering with just the numeric figure?

Notebook: Cc1ccccc1S(N)(=O)=O , solubility (mole fraction) read as 0.00534

---

Settings: in methyl acetate, 293.35 K
Measure: solubility (mole fraction)
Output spec: single numeric token, no unit.

The reported value for Cc1ccccc1S(N)(=O)=O in terms of solubility (mole fraction) is 0.0405

---

Conditions: in n-pentanol, 289.15 K
Measure: solubility (mole fraction)
Answer with a bare number; do not write a unit.

Entry under test: Cc1ccccc1S(N)(=O)=O . Its solubility (mole fraction) was 0.00568

---

Conditions: in n-butanol, 298.95 K
Measure: solubility (mole fraction)
Keep it simple and answer with nothing but the number.

Field solubility (mole fraction) (entry Cc1ccccc1S(N)(=O)=O ) reads 0.0104

---

Settings: in acetonitrile, 308.95 K
Measure: solubility (mole fraction)

Item: Cc1ccccc1S(N)(=O)=O | solubility (mole fraction): 0.0476

---

Details: in cyclopentanone, 298.95 K
Measure: solubility (mole fraction)
Form: value (number only, do not type unit).

Entry under test: Cc1ccccc1S(N)(=O)=O . Its solubility (mole fraction) was 0.133

---

Details: in n-propanol, 298.95 K
Measure: solubility (mole fraction)
# output: bare number, no unit

solubility (mole fraction) for Cc1ccccc1S(N)(=O)=O is 0.0126

---

Conditions: in ethanol, 318.15 K
Measure: solubility (mole fraction)
Would you mind answering with just the numeric figure?

Entry Cc1ccccc1S(N)(=O)=O — recorded solubility (mole fraction) = 0.0374

---

Details: in ethyl acetate, 303.25 K
Measure: solubility (mole fraction)
Please give the numeric answer without any surrounding text.

Recorded solubility (mole fraction) (compound Cc1ccccc1S(N)(=O)=O ): 0.0416

---

Conditions: in n-propanol, 308.65 K
Measure: solubility (mole fraction)
// return just the number, without any unit appended

The molecule identified as Cc1ccccc1S(N)(=O)=O registered its solubility (mole fraction) at 0.0182

---

Settings: in acetonitrile, 279.15 K
Measure: solubility (mole fraction)
Give the figure by itself; no unit, no explanation.

Entry Cc1ccccc1S(N)(=O)=O ; solubility (mole fraction) = 0.0196

---

Settings: in isopentanol, 303.25 K
Measure: solubility (mole fraction)
Please give only the number in your answer, with no unit.

// Cc1ccccc1S(N)(=O)=O : solubility (mole fraction) value = 0.00978

---

Conditions: in n-butanol, 289.15 K
Measure: solubility (mole fraction)
No unit in the answer, only the number.

For Cc1ccccc1S(N)(=O)=O the compound record lists solubility (mole fraction) as 0.00731

---

Details: in dichloromethane, 289.15 K
Measure: solubility (mole fraction)
Form field (numeric): enter value without unit.

response.value for Cc1ccccc1S(N)(=O)=O (field: solubility (mole fraction)) = 0.00304

---

Settings: in methanol, 308.65 K
Measure: solubility (mole fraction)

solubility (mole fraction) reported for this compound Cc1ccccc1S(N)(=O)=O : 0.0422

---

Details: in n-pentanol, 283.95 K
Measure: solubility (mole fraction)
Lab note: jot the number down without any unit.

solubility (mole fraction) in this record for Cc1ccccc1S(N)(=O)=O : 0.00456

---

Conditions: in n-propanol, 323.15 K
Measure: solubility (mole fraction)
Quick one: just the number, no unit, thanks!

Summary for this compound, Cc1ccccc1S(N)(=O)=O : solubility (mole fraction) is 0.03

---

Conditions: in acetone, 298.95 K
Measure: solubility (mole fraction)
Number, no unit, nothing else.

Field solubility (mole fraction) (entry Cc1ccccc1S(N)(=O)=O ) reads 0.105

---

Conditions: in ethyl formate, 279.15 K
Measure: solubility (mole fraction)
Give your answer as a number; write no unit.

Sure, the documented solubility (mole fraction) for Cc1ccccc1S(N)(=O)=O is 0.0146

---

Conditions: in isopropanol, 313.15 K
Measure: solubility (mole fraction)
Reply briefly: the number, and no unit.

For record Cc1ccccc1S(N)(=O)=O the listed solubility (mole fraction) is 0.0208

---

Conditions: in cyclohexanone, 323.85 K
Measure: solubility (mole fraction)
Reply with the value as a number alone.

Measured solubility (mole fraction), Cc1ccccc1S(N)(=O)=O : 0.168

---

Conditions: in dichloromethane, 279.15 K
Measure: solubility (mole fraction)

# compound Cc1ccccc1S(N)(=O)=O ; its solubility (mole fraction) = 0.00199

---

Conditions: in acetone, 283.75 K
Measure: solubility (mole fraction)
Provide a numeric answer; units are not to be included.

// solubility (mole fraction) value for Cc1ccccc1S(N)(=O)=O : 0.0844

---

Conditions: in methanol, 298.95 K
Measure: solubility (mole fraction)
Answer field: number only, no words.

solubility (mole fraction) reported for this compound Cc1ccccc1S(N)(=O)=O : 0.0311

---

Conditions: in acetone, 289.15 K
Measure: solubility (mole fraction)
Format: numeric value only, no unit, no commentary.

// Cc1ccccc1S(N)(=O)=O : solubility (mole fraction) value = 0.091

---

Conditions: in isopropanol, 289.15 K
Measure: solubility (mole fraction)
Would you mind answering with just the numeric figure?

solubility (mole fraction) reported for this molecule Cc1ccccc1S(N)(=O)=O : 0.00756

---

Conditions: in ethyl formate, 298.95 K
Measure: solubility (mole fraction)

What the record says about Cc1ccccc1S(N)(=O)=O : solubility (mole fraction) is 0.0239

---

Conditions: in methyl acetate, 289.15 K
Measure: solubility (mole fraction)
Keep the answer to the number alone.

The compound listed as Cc1ccccc1S(N)(=O)=O shows solubility (mole fraction) equal to 0.0374

---

Conditions: in isopentanol, 313.15 K
Measure: solubility (mole fraction)
Lab note: jot the number down without any unit.

Form: compound = Cc1ccccc1S(N)(=O)=O ; solubility (mole fraction) = 0.0144

---

Conditions: in isopropanol, 273.15 K
Measure: solubility (mole fraction)
// no unit string in output, number only

For Cc1ccccc1S(N)(=O)=O the compound record lists solubility (mole fraction) as 0.00343

---

Conditions: in n-butanol, 303.25 K
Measure: solubility (mole fraction)
# respond with the number and nothing more

Entry under test: Cc1ccccc1S(N)(=O)=O . Its solubility (mole fraction) was 0.0123

---

Conditions: in isobutanol, 298.95 K
Measure: solubility (mole fraction)
Answer field: number only, no words.

Kindly note the recorded solubility (mole fraction) for Cc1ccccc1S(N)(=O)=O , which is 0.00768

---

Settings: in ethyl acetate, 279.15 K
Measure: solubility (mole fraction)

Measured solubility (mole fraction), Cc1ccccc1S(N)(=O)=O : 0.0248

---

Settings: in ethanol, 283.75 K
Measure: solubility (mole fraction)
Please respond with just the number, no unit label.

// solubility (mole fraction) value for Cc1ccccc1S(N)(=O)=O : 0.0116

---

Details: in dichloromethane, 312.15 K
Measure: solubility (mole fraction)
Reply with the value as a number alone.

The reported value for Cc1ccccc1S(N)(=O)=O in terms of solubility (mole fraction) is 0.00785

---

Conditions: in acetone, 308.65 K
Measure: solubility (mole fraction)
Field format: numeric only.

solubility (mole fraction) measured on Cc1ccccc1S(N)(=O)=O = 0.124

---

Conditions: in cyclohexanone, 308.95 K
Measure: solubility (mole fraction)

Per the records, this molecule ( Cc1ccccc1S(N)(=O)=O ) has solubility (mole fraction) equal to 0.133

---

Details: in acetone, 279.15 K
Measure: solubility (mole fraction)

The reported solubility (mole fraction) of the molecule Cc1ccccc1S(N)(=O)=O was 0.0787

---

Settings: in cyclohexanone, 273.15 K
Measure: solubility (mole fraction)
Could you respond with only the numeric value?

Sample Cc1ccccc1S(N)(=O)=O ; solubility (mole fraction) observed: 0.0803

---

Conditions: in cyclopentanone, 323.85 K
Measure: solubility (mole fraction)
Just the number, please, no unit attached.

GET /value?item= Cc1ccccc1S(N)(=O)=O &field=solubility (mole fraction) returns 0.187

---

Settings: in n-propanol, 283.75 K
Measure: solubility (mole fraction)
Enter a number only.

// solubility (mole fraction) lookup, compound = Cc1ccccc1S(N)(=O)=O , result: 0.00674

These data points were gathered from BigSolDB 2.1.
